- Target Entity: PHD2 (Homo sapiens, UniProt Q9GZT9)
- Construct: FLAG-tagged full length PHD2 expressed in and purified from baculovirus-infected Sf9 cells; FLAG; made in house; host or cells: baculovirus-infected Sf9 cells
- Sequence (Q9GZT9 whole entry): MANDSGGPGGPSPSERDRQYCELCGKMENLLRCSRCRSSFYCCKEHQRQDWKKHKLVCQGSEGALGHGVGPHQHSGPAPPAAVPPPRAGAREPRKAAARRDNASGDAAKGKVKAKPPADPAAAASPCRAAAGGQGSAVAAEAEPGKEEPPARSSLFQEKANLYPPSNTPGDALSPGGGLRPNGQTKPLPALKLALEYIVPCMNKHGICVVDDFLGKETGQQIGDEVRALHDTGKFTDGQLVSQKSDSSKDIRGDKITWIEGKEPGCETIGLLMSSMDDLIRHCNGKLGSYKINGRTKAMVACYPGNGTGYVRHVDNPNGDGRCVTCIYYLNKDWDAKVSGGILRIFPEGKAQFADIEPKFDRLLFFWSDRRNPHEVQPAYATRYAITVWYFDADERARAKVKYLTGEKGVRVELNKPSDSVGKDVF
- Experimental Details: PHD2 / HIF-1α peptide hydroxylation assay, time resolved fluorescence (VHL complex detection)
- Format: biochemical
- Condition Summary: FLAG-tagged full length PHD2; 0.2 μM 2-oxoglutarate, 0.5 μM HIF-1α peptide; read-out: PHD2 Activity (PHD2 binding activity expressed as IC50 (nM))
Parameter Measured: IC50

Worked set:
- Compound: "COc1ccc(C(NC(=O)c2cnc(-c3cccnn3)nc2O)c2nc(C)cs2)cc1 (single isomer, unassigned) [Example 145]"
  Target Entity: "PHD2 (Homo sapiens, UniProt Q9GZT9)"
  Parameter Measured: "IC50"
  Result: "≤ 10 nM"
- Compound: "O=C(NCc1ccc(Cl)cc1Cl)c1cnc(-n2cccn2)nc1O"
  Target Entity: "PHD2 (Homo sapiens, UniProt Q9GZT9)"
  Parameter Measured: "IC50"
  Result: "≤ 10 nM"
- Compound: "Cc1nc(-c2ncc(C(=O)NCCc3ccc(F)cc3)c(O)n2)cs1"
  Target Entity: "PHD2 (Homo sapiens, UniProt Q9GZT9)"
  Parameter Measured: "IC50"
  Result: "100 to 1000 nM"
- Compound: "O=C(NCc1ccccc1Cl)c1cnc(-c2cccnn2)nc1O"
  Target Entity: "PHD2 (Homo sapiens, UniProt Q9GZT9)"
  Parameter Measured: "IC50"
  Result: "10 to 100 nM"

IN: Look up IC50 with PHD2 (Homo sapiens, UniProt Q9GZT9) for this compound: Cc1nc(-c2ncc(C(=O)NCc3ccc(C(F)(F)F)cc3)c(O)n2)cs1
OUT: 10 to 100 nM

###

- Target Entity: PHD2 (Homo sapiens, UniProt Q9GZT9)
- Construct: FLAG-tagged full length PHD2 expressed in and purified from baculovirus-infected Sf9 cells; FLAG; made in house; host or cells: baculovirus-infected Sf9 cells
- Experimental Details: PHD2 / HIF-1α peptide hydroxylation assay, time resolved fluorescence (VHL complex detection)
- Type: biochemical
- Condition Summary: FLAG-tagged full length PHD2; 0.2 μM 2-oxoglutarate, 0.5 μM HIF-1α peptide; read-out: PHD2 Activity (PHD2 binding activity expressed as IC50 (nM))
Reported IC50 is given for each of the following compounds.

Example entries and their recorded answers appear below.
- Compound: "O=C(NCc1ccc(Br)cc1)c1cnc(-n2cccn2)nc1O"
  IC50: "≤ 10 nM"
- Compound: "CC(NC(=O)c1cnc(-n2cccn2)nc1O)[C@]12C[C@H]3C[C@H](C[C@H](C3)C1)C2 (stereo partly drawn)"
  IC50: "10 to 100 nM"
- Compound: "O=C(NC1CCc2ccccc21)c1cnc(-n2cccn2)nc1O (stereo not drawn)"
  IC50: "10 to 100 nM"
- Compound: "Cc1ccc([C@H](C)NC(=O)c2cnc(-n3cccn3)nc2O)cc1"
  IC50: "≤ 10 nM"

IN: GET /values?readout=IC50&item= COc1ccc(C(NC(=O)c2cnc(-c3cccnn3)nc2O)c2cccc(C#N)c2)cc1 (single isomer, unassigned) [Example 148]
OUT: ≤ 10 nM

IN: # iterate: O=C(NC(c1ccccc1)c1ccncc1)c1cnc(-n2cccn2)nc1O (stereo not drawn)
OUT: ≤ 10 nM

IN: Next: O=C(NCc1ccc(-c2ccc(F)cc2)cc1)c1cnc(-n2cccn2)nc1O
OUT: ≤ 10 nM

IN: Field entry: COc1ccc(C(NC(=O)c2cnc(-c3cccnn3)nc2O)c2cccc(C)n2)c(OC)c1 (single isomer, unassigned) [Example 149]
OUT: ≤ 10 nM

IN: Try this compound too: O=C(N[C@H](CO)c1ccccc1)c1cnc(-n2cccn2)nc1O
OUT: 10 to 100 nM

IN: Same read-out for COc1ccc(C(NC(=O)c2cnc(-c3cccnn3)nc2O)c2nc3ccccc3s2)cc1 (stereo not drawn) ?
OUT: ≤ 10 nM

IN: Param item: Cc1cccc(-c2ncc(C(=O)Nc3ccc(F)cc3Cl)c(O)n2)n1
OUT: 1000 to 10000 nM

IN: Try this compound next: C[C@H](NC(=O)c1cnc(-n2cccn2)nc1O)c1ccc(Oc2ccccc2)cc1
OUT: ≤ 10 nM
